Collected OD450 values appear next to each entry.
target: BSA (UniProt P02769); assay: scFv ELISA
Sequence (P02769 25-607 limits assumed): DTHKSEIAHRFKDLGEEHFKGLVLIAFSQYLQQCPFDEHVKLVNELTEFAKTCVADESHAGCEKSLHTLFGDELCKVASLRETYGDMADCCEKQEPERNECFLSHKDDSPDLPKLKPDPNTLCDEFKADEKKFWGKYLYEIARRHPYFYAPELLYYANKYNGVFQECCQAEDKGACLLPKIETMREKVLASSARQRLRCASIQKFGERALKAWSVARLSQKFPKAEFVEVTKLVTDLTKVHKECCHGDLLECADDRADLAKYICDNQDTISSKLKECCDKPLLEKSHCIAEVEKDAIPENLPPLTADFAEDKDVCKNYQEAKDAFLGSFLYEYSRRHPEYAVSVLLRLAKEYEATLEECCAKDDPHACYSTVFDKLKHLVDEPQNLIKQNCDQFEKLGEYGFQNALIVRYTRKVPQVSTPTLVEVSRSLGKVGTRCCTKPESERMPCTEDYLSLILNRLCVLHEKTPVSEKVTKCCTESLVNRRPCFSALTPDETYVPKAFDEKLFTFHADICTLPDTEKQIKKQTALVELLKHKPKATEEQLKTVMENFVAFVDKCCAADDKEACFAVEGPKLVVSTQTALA
# number only, unit OD450 dropped from output

Lookup: Return OD450 for the following binder: PcOxP_DB02_B06 (scFv, V domains shown, scFv in periplasmic extract) VH: EVQLLESGGGLVQPGGSLRLSCAASGFTFSDNYMEWVRQAPGKGLEWVAASRNKANDYTTEYADSVKGRFTISRDNSKNTLYLQMNSLRAEDTAVYYCARDYYGSSYWYFDVWGQGTLVTVSS VL: DIQMTQSPSSLSASVGDRVTITCTASESLYSSKHKVHYLAWYQQKPGKAPKLLIYGASNRYIGVPSRFSGSGSGTDFTLTISSLQPEDFATYYCTQFYSYPLTFGGGTKVEIK
Found: 0.11

Next:
Lookup: Return OD450 for the following binder: PcOxP_DB02_D01 (scFv, V domains shown, scFv in periplasmic extract) VH: EVQLLESGGGLVQPGGSLRLSCAASGFGFSDFYMEWVRQAPGKGLEWVAASRHKANDYTTEYADSVKGRFTISRDNSKNTLYLQMNSLRAEDTAVYYCARDYYGSSYWYFDVWGQGTLVTVSS VL: DIQMTQSPSSLSASVGDRVTITCTASESLYSSKHKVHYLAWYQQKPGKAPKLLIYGASNRYIGVPSRFSGSGSGTDFTLTISSLQPEDFATYYCAQFYWYPLTFGGGTKVEIK
Found: 0.09

Lookup: Return OD450 for the following binder: PcOxP_DB02_F07 (scFv, V domains shown, scFv in periplasmic extract) VH: EVQLLESGGGLVQPGGSLRLSCAASGFWFSDFYMEWVRQAPGKGLEWVAASRNKANDYTTEYADSVKGRFTISRDNSKNTLYLQMNSLRAEDTAVYYCARDYYGSSYWYFDVWGQGTLVTVSS VL: DIQMTQSPSSLSASVGDRVTITCTASQSLYSSKNKVHYLAWYQQKPGKAPKLLIYGESNRYIGVPSRFSGSGSGTDFTLTISSLQPEDFATYYCAQFYSYPLTFGGGTKVEIK
Found: 0.1

Lookup: Return OD450 for the following binder: PcOxP_DB04_B12 (scFv, V domains shown, scFv in periplasmic extract) VH: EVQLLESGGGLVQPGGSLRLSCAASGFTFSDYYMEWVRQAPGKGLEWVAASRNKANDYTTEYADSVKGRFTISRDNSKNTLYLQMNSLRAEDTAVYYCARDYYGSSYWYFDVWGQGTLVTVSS VL: DIVMTQSPDSLAVSLGERATINCTASESLYSSKHKVHYLAWYQQKPGQPPKLLIYGASNRYIGVPDRFSGSGSGTDFTLTISSLQAEDVAVYYCAAFYSYPLTFGGGTKVEIK
Found: 0.09

Lookup: Return OD450 for the following binder: PcOxP_DB02_C02 (scFv, V domains shown, scFv in periplasmic extract) VH: EVQLLESGGGLVQPGGSLRLSCAASGFTFSDFYMEWVRQAPGKGLEWVAASRNKANDYTVEYADSVKGRFTISRDNSKNTLYLQMNSLRAEDTAVYYCARDYYGHSYWYFDVWGQGTLVTVSS VL: DIQMTQSPSSLSASVGDRVTITCTASESLYSSKHKVHYLAWYQQKPGKAPKLLIYGASNRYIGVPSRFSGSGSGTDFTLTISSLQPEDFATYYCAQFYSYPLTFGGGTKVEIK
Found: 0.1
